# TARGET OF ASSAY: F protein of strain 18537 of RSV subtype B (respiratory syncytial virus subtype B, …, UniProt P13843 26-574)
# ASSAY COMMENT: cell-based or functional assay
MEASUREMENT TYPE: IC50(nM), inhibition of strain RSV/18537 infection of Hep-2 cells (RFFIT)
Please report the result as a number followed by the unit.

Please review the entries below; each comes with its answer.
| BINDER | ASSAY VALUE |
| --- | --- |
| anti-RSV monoclonal antibody Nirsevimab (MEDI8897) (antibody, V domains shown) VH: QVQLVQSGAEVKKPGSSVMVSCQASGGLLEDYIINWVRQAPGQGPEWMGGIIPVLGTVHYGPKFQGRVTITADESTDTAYMELSSLRSEDTAMYYCATETALVVSETYLPHYFDNWGQGTLVTVSS VL: DIQMTQSPSSLSAAVGDRVTITCQASQDIVNYLNWYQQKPGKAPKLLIYVASNLETGVPSRFSGSGSGTDFSLTISSLQPEDVATYYCQQYDNLPLTFGGGTKVEIK | 0.139 nM |
| recombinant monoclonal antibody R22B1 against F protein of RSV (human IgG1-K version) (antibody, V domains shown) VH: QVQLVQSGAEVKKPGSSVMVSCQASGDPLQNYIINWVRQAPGQGPEWMGAIIPALGSAHYGPKFQGRVTITADESTDTAYMELSSLRSEDTAMYYCATETAVIISESYLPHFFDNWGQGTLVTVSS VL: DIQMTQSPSSLSAAVGDRVTITCQASQDIVNYLNWYQQKPGKAPKLLIYVASNLETGVPSRFSGSGSGTDFSLTISSLQPEDVATYYCQEYDSLALAFGGGTKVEIKR | 0.111 nM |
| anti-RSV monoclonal antibody Palivizumab (Hu1129) (antibody, V domains shown) VH: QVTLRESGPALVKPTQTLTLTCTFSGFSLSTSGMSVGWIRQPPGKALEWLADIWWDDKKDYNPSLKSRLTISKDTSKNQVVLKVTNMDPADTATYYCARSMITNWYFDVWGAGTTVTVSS VL: DIQMTQSPSTLSASVGDRVTITCKCQLSVGYMHWYQQKPGKAPKLWIYDTSKLASGVPSRFSGSGSGTEFTLTISSLQPDDFATYYCFQGSGYPFTFGGGTKLEIK | 4.15 nM |

Now consider a different binder.
Find the recorded IC50(nM), inhibition of strain RSV/18537 infection of Hep-2 cells (RFFIT) belonging to anti-RSV monoclonal antibody Clesrovimab (RB1) (antibody, V domains shown) VH: EVQLVESGGGLVRPGRSLRLSCTVSGFSFDDSAMSWVRQAPGKGLEWISFIKSKTYGGTKEYAASVKGRFTISRDDSKNIAYLQMNSLKTEDTAVYYCTRGAPYGGNSDYYYGLDVWGQGTTVTVSS VL: DIQMTQSPSSLSASVGDRVTITCRTSQDVRGALAWYQQKPGKAPKLLIFDASSLETGVPSRFSGSGSGTVFTLTISSLQPEDFAAYYCQQFLDFPFTFGQGTRLEIK and report it.
0.088 nM
